Target: T1, recombinant human CTGF protein (R&D Systems, SEQ ID NO: 79) (human, UniProt P29279 27-349)
T1 construct: Bought; also called human CTGF/CNN2; huCTGF
T1 sequence: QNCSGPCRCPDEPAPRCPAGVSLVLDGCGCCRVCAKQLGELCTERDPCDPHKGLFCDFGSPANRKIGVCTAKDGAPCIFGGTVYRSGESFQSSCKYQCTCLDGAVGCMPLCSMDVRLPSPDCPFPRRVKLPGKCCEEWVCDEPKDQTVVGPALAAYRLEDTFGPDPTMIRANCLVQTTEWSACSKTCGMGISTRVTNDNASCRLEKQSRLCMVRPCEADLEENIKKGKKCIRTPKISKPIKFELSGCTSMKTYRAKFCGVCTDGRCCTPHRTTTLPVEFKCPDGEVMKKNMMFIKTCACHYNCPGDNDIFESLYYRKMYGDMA
Experiment: HTRF, 1 nM biotinylated human CTGF
test readout: EC50 (pM)

1) fusion protein of SEQ ID NO: 74 (designed binder, not shown: C-terminal His-tag) QDSTSDLIPAPPLSKVPLQQNFQDNQFQGKWYVVGLAGNAILREDKQPAKMFATIYELKEDKSYDVTSVRFEAKSCKYTIKTFVPGSQPGEFTAGYIKSAPGQTSTLVRVVSTNYNQHAMVFFKHVTQNREIFVITLYGRTKELTSELKENFIRFSKSLGLPENHIVFPVPIDQCIDGGGGGSGGGGSGGGGSQDSTSDLIPAPPLSKVPLQQNFQDNQFQGKWYVVGWAGNVKLREDKQPQKMSATIYELKEDKSYDVTEVVFEQKKCHYIIKTFVPGSQPGEFTAGDIKSPPGYTSSLVRVVSTNYNQHAMVFFKKVSQNREFFWITLYGRTKELTSELKENFIRFSKSLGLPENHIVFPVPIDQCIDG : 590
